# target: Glucocorticoid receptor (Homo sapiens, UniProt P04150)
# Sequence (P04150 whole entry): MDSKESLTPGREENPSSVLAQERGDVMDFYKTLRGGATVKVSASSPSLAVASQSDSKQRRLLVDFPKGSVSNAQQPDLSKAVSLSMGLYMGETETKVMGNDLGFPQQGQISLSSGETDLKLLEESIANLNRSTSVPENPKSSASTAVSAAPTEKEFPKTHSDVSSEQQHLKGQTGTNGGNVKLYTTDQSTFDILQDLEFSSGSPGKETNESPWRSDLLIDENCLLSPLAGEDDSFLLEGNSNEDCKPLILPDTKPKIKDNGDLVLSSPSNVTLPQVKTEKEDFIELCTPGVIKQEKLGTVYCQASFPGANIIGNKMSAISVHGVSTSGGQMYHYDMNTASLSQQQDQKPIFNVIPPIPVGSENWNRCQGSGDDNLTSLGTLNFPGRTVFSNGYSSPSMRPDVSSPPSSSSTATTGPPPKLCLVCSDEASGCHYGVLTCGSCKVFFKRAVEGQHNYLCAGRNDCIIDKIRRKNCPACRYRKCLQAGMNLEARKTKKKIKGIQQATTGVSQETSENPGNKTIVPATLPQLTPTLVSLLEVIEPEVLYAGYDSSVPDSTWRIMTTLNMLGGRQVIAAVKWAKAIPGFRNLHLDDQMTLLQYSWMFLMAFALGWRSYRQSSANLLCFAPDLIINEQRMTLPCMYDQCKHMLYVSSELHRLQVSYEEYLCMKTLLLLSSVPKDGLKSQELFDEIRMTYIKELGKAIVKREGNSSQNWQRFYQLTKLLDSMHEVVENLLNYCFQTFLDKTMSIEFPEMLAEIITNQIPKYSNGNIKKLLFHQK
# assayInfo: Antagonist activity at glucocorticoid receptor in human A549 cells assessed as inhibition of dexamethasone-induced transcription at GRE after 24 hrs by luciferase reporter gene assay
recordedEndpoint: log10 of IC50 (log10 of the value in µM)
Hello, just confirming the data are log10 of IC50 with units of µM.

Use these answered entries as a reference point.
CC#C[C@]1(NC=O)CC[C@H]2[C@@H]3CCC4=CC(=O)CCC4=C3[C@@H](c3ccc4ocnc4c3)C[C@@]21C ... -1.22
CC#C[C@]1(O)CC[C@H]2[C@@H]3CCC4=CC(=O)CCC4=C3[C@@H](c3ccc4oc(CC)nc4c3)C[C@@]21C ... -1.89
CC#C[C@]1(O)CC[C@H]2[C@@H]3CCC4=CC(=O)CCC4=C3[C@@H](c3ccc4ocnc4c3)C[C@@]21C ... -1.35

-- ask Could you tell me which log10 of IC50 is on file for CC#C[C@]1(O)CC[C@H]2[C@@H]3CCC4=CC(=O)CCC4=C3[C@@H](c3ccc4oc(C)nc4c3)C[C@@]21C ?
-- reply -1.64

-- ask Now give it for CC#C[C@]1(O)CC[C@H]2[C@@H]3CCC4=CC(=O)CCC4=C3[C@@H](c3ccc4oc(C(F)(F)F)nc4c3)C[C@@]21C too.
-- reply -1.21

-- ask Now give it for CC#C[C@]1(NC=O)CC[C@H]2[C@@H]3CCC4=CC(=O)CCC4=C3[C@@H](c3ccc4oc(C(F)(F)F)nc4c3)C[C@@]21C too.
-- reply -0.85
